# composite z-score values compiled below
# Tested on: Inhibin beta A chain (activin A)
# ASSAY_INFO: INHBA (activin A) binders on microarrays, primary screen, biochemical, small-molecule microarray, 635 nm fluorescence scan (AID 1107);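 note: mouse activin A protein probed at 4.33 µg/mL on printed slides; score merges bound-protein fluorescence near 667 nm with spot signal-to-noise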
# EXPERIMENTAL_CONDITIONS: small-molecule microarray binding, higher = more signal
PARAMETER: composite z-score

[[record]]
compound = "COc1ccc([Si](C)(C)[C@@H]2[C@@H](CCn3cc([C@H](O)c4ccccc4)nn3)O[C@]3(C(=O)N(Cc4cccc(N5C(=O)c6cccc7cccc5c67)c4)c4ccccc43)[C@H]2C)cc1"
reported = -0.317

[[record]]
compound = "C=CCC(OC(C)=O)[C@@H]1[C@@H](N(Cc2ccc(-c3cccc(C(F)(F)F)c3)o2)C(=O)c2cccc3ccccc23)c2cc(OCCCO)ccc2N1C(=O)Cc1ccc(OC)cc1 (stereo partly specified)"
reported = 1.08

[[record]]
compound = "COCCOC(=O)N1C(=O)[C@@]2(c3cc(C#CCNC(N)=O)ccc31)[C@H](c1ccc(OCCO)cc1)N1[C@H](c3ccccc3)[C@H](c3ccccc3)OC(=O)[C@H]1[C@@H]2C(N)=O"
reported = 1.07

[[record]]
compound = "C=C[C@H](C)[C@H](OC(=O)Nc1ccc(OC)cc1)c1ccc(OCCO)cc1"
reported = -0.801

[[record]]
compound = "C=CCN1C(=O)[C@]2(O[C@H](CCO)[C@@H]([Si](C)(C)c3ccc(OC)cc3)[C@@H]2C)c2cc(N3C(=O)COc4ccccc43)ccc21"
reported = 0.378

[[record]]
compound = "CN(C)C(=O)[C@@]1(Cc2ccccc2)COC(c2ccc(OCCCO)cc2)=N1"
reported = -0.512

